Hi! I'm sharing some IC50 results obtained with NK-2 receptor (Rattus norvegicus).
Sequence (P16610 whole entry): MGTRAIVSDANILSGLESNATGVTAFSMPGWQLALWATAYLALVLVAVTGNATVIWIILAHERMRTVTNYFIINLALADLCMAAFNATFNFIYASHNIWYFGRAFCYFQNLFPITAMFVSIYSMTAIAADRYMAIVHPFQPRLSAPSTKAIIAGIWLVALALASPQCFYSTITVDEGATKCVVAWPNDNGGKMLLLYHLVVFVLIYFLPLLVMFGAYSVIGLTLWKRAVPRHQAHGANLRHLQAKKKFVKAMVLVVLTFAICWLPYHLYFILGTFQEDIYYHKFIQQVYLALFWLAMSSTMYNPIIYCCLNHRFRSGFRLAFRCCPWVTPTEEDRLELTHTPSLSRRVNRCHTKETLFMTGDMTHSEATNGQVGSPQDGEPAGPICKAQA
Could you give me the number in nM? Just the number is fine.

Item CC(=O)Nc1c2c(nc3ccccc13)CCN(CCC(CN(C)C(=O)c1ccccc1)c1ccc(Cl)c(Cl)c1)C2 (stereo not drawn) has what recorded IC50?
18

Report IC50 for CN(CC(CCN1CCc2nc3ccccc3c(-c3ccccc3)c2C1)c1ccc(Cl)c(Cl)c1)C(=O)c1ccccc1 (stereo not drawn) please.
70

Need IC50 of CN(CC(CCN1CCc2nc3c(cc2C1)CCCC3)c1ccc(Cl)c(Cl)c1)C(=O)c1ccccc1 (stereo not drawn) , thanks.
56

###

Biological target: NK-1 receptor (Cavia porcellus, UniProt P30547)
Construct: its ileum was extracted; An approximately 3 cm long specimen was prepared therefrom
Sequence (P30547 whole entry): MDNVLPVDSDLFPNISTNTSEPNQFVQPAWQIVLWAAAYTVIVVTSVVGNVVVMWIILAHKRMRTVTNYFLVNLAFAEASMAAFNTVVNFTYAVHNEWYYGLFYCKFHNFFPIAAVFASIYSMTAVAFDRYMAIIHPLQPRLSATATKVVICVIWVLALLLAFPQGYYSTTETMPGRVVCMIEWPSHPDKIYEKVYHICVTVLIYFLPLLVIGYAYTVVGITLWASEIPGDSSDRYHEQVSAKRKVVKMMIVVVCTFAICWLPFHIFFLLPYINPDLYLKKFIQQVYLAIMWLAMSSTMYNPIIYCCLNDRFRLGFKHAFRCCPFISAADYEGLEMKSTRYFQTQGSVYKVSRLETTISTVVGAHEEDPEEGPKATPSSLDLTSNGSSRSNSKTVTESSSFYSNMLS
Assay: Antagonistic action against NK-1 receptor: Methyl Substance P-induced contraction of isolated guinea pig ileum
Conditions: Methyl Substance P 1×10^−9 M, 35-minute incubation, read-out: IC50 of the drug against contraction by Methyl Substance P
MEASURED ENDPOINT: IC50 (nM)
Return type: number; implicit unit nM.

Please look up its IC50: CN(CC(CCN1CCc2nc3c(cc2C1)CCCC3)c1ccc(Cl)c(Cl)c1)C(=O)c1ccccc1 (stereo not shown)
470
